B1: library; numbered along this chain (parent)
chain: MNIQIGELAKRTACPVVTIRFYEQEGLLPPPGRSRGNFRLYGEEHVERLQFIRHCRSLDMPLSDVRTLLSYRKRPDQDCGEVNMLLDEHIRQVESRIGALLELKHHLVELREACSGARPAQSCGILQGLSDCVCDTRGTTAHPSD

Variants of: B1
Assay: sfGFP reporter fluorescence (15 h) (µM FITC); higher = higher leak
Details: library round: Round 1; ligand: none
Would you please tag the item condition met when its sfGFP reporter fluorescence is 0.07 or above, and condition not met when it is below?

Mutant	Classification
D135A P143T	condition not met
E81Q	condition not met
N83S P143W	condition not met
N83T D135A	condition not met
L58F K104V	condition not met
N83S E94D K104A	condition not met
E109H D135A	condition not met
L107C C134I	condition met
N83S I90L R111L	condition not met
Q127A D135P	condition not met
L129I D131C	condition not met
R96S	condition not met
N83T E109L P143R	condition not met
D131C D135A	condition not met
N83T C134A	condition not met
I97S K104V	condition met
N83I K104V	condition not met
G128H D131C	condition not met
N83T R111F	condition not met
P61N D64T	condition met
P61N V108M R111C	condition met
V108L C114L	condition not met
N83S R111D	condition not met
L107C G128I D135S	condition met
D131S D135P	condition not met
N83S R111C	condition not met
N83T C134L	condition not met
N83Y K104V	condition not met
R96A K104V G128M	condition not met
L129M P143T	condition not met
I3M D131C	condition not met
D64K D131L	condition met
D131Y D135A	condition not met
P61N D135A	condition met
N83T E109F	condition not met
D135A P143M	condition not met
M84A I97G	condition not met
P61N D64T E112I	condition met
L107C G124A G128M	condition met
S115G D131C	condition not met
D131C P143A	condition not met
D64K I97S	condition met
E109H D131C	condition not met
D64K V108E	condition met
D64K N83T R111L	condition not met
D64K D131C	condition met
N83T D131C	condition not met
D131S D135A	condition not met
Q127S	condition not met
N83T D135F	condition not met
I97A K104V	condition met
K104A G128M	condition not met
P30A V46R	condition not met
D64I D135T	condition met
D64S E109H	condition met
D64T N83T R111I	condition met
D87S	condition not met
N83T I97T	condition not met
V108E E109H	condition not met
D135A P143F	condition not met
R39F V46C	condition not met
N83T C134M	condition not met
N83T L85R	condition not met
P15A P61L	condition met
L107C E109Q G128I	condition met
P61A L107C G128M	condition met
D135R P143A	condition not met
N83S E112L	condition not met
L107N G128M	condition met
M60L D64K E81A R111A	condition met
P61N D131Y	condition met
M60L D64K G128T D135A	condition met
P61D D64K L107C	condition met
G36F M60L P61N	condition not met
N83T R111D	condition not met
D64K D135Y	condition met
D64T E88A C134E	condition met
D131C P143R	condition not met
D131T D135Y	condition met
L85Y K104V	condition not met
I125L D131C	condition not met
E109L D135R	condition not met
R96G	condition not met
D131H P143Y	condition not met
